Where do the numbers come from? From BigSolDB 2.1.

Settings: in acetonitrile, 289.15 K
metric: solubility (mole fraction)

{"columns": ["entry-smiles", "metric", "assay-value"],
 "data": [
  ["CC(C)C(N)=O", "solubility (mole fraction)", 0.0271]
]}

###

Details: in methanol, 289.15 K

{"columns": ["entry-smiles", "solubility (mole fraction)"],
 "data": [
  ["CC(C)C(N)=O", 0.127]
]}

###

Conditions: in 2-butanone, 289.15 K
metric: solubility (mole fraction)

{"columns": ["entry-smiles", "assay-value"],
 "data": [
  ["CC(C)C(N)=O", 0.0548]
]}

###

Details: in methyl acetate, 273.15 K
metric: solubility (mole fraction)

{"columns": ["entry-smiles", "assay-value"],
 "data": [
  ["CC(C)C(N)=O", 0.03]
]}

###

Details: in cyclohexanone, 293.75 K

{"columns": ["entry-smiles", "solubility (mole fraction)"],
 "data": [
  ["CC(C)C(N)=O", 0.0551]
]}

###

Settings: in isopropanol, 324.15 K

{"columns": ["entry-smiles", "solubility (mole fraction)"],
 "data": [
  ["CC(C)C(N)=O", 0.257]
]}

###

Conditions: in acetonitrile, 303.45 K
metric: solubility (mole fraction)

{"columns": ["entry-smiles", "assay-value"],
 "data": [
  ["CC(C)C(N)=O", 0.051]
]}

###

Settings: in ethyl formate, 323.95 K
metric: solubility (mole fraction)

{"columns": ["entry-smiles", "assay-value"],
 "data": [
  ["CC(C)C(N)=O", 0.069]
]}

###

Details: in ethyl formate, 299.05 K

{"columns": ["entry-smiles", "solubility (mole fraction)"],
 "data": [
  ["CC(C)C(N)=O", 0.0316]
]}

###

Settings: in THF, 293.75 K

{"columns": ["entry-smiles", "solubility (mole fraction)"],
 "data": [
  ["CC(C)C(N)=O", 0.0741]
]}

###

Settings: in chloroform, 299.15 K
metric: solubility (mole fraction)

{"columns": ["entry-smiles", "metric", "assay-value"],
 "data": [
  ["CC(C)C(N)=O", "solubility (mole fraction)", 0.0436]
]}

###

Settings: in 2-butanone, 313.65 K
metric: solubility (mole fraction)

{"columns": ["entry-smiles", "assay-value"],
 "data": [
  ["CC(C)C(N)=O", 0.0841]
]}

###

Conditions: in cyclopentanone, 308.55 K

{"columns": ["entry-smiles", "solubility (mole fraction)"],
 "data": [
  ["CC(C)C(N)=O", 0.134]
]}

###

Details: in n-propanol, 279.15 K

{"columns": ["entry-smiles", "solubility (mole fraction)"],
 "data": [
  ["CC(C)C(N)=O", 0.047]
]}

###

Conditions: in cyclopentanone, 293.75 K

{"columns": ["entry-smiles", "solubility (mole fraction)"],
 "data": [
  ["CC(C)C(N)=O", 0.0871]
]}

###

Details: in methanol, 313.25 K

{"columns": ["entry-smiles", "solubility (mole fraction)"],
 "data": [
  ["CC(C)C(N)=O", 0.219]
]}

###

Conditions: in n-butanol, 279.15 K

{"columns": ["entry-smiles", "solubility (mole fraction)"],
 "data": [
  ["CC(C)C(N)=O", 0.0653]
]}

###

Settings: in methyl acetate, 323.95 K

{"columns": ["entry-smiles", "solubility (mole fraction)"],
 "data": [
  ["CC(C)C(N)=O", 0.0794]
]}
